Sourced from patent US20240336909A1

Overview of recorded ELISA absorbance for various binders
Measured On: T1, human EpCAM protein (human, UniProt P16422 24-265)
T1 construct: biotinylated in the Octet assays; also called hu EpCAM; biotinylated human EpCAM protein
T1 sequence (looked up): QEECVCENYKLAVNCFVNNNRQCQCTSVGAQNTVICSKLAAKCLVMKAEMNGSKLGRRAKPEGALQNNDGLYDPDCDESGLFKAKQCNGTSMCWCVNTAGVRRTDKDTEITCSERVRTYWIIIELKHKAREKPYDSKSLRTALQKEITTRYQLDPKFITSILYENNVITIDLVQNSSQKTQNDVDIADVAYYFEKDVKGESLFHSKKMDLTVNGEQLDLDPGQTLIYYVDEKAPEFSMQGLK
Assay Overview: colorimetric ELISA
Entry rule: numbers only, all in absorbance.

# input Please report the recorded ELISA absorbance for Llama anti-EpCAM single domain antibody EPL90 (VHH, E. coli periplasmic extract) VHH: QVQLQESGGGLVQAGGSLRLSCAASGFIFRAASMAWYRQSPGNERELVASISSGAFTNYADSVKARFTISRDNAKNTVYLQMNSLKPEDTAVYFCGATFLRSDGHHTINGQGTQVTVSS .
# output 1.6
